experiment: Intrinsic clearance in mouse hepatocytes assessed as per million cells
Type: ADME, cell-based, Hepatocyte
condition_notes: read-out: CLH
Item-by-item account of hepatocyte CLint
Respond numerically; units are µL/min/1e6 cells and should not be typed.

molecule=C/C1=C\CC[C@@]2(C)O[C@@H]2[C@H]2OC(=O)[C@@H](CN[C@@H](Cc3ccccc3)C(=O)O)[C@@H]2CC1 unit_name="µL/min/1e6 cells" recorded_number=16
molecule=C/C1=C\CC[C@@]2(C)O[C@@H]2[C@H]2OC(=O)[C@@H](CN3CCC(c4cc(O)nc(C)n4)CC3)[C@@H]2CC1 unit_name="µL/min/1e6 cells" recorded_number=22

Kindly review the next compound as well.
Form: compound = C/C1=C/CC[C@@]2(C)O[C@@H]2[C@H]2OC(=O)[C@@H](CN3CCCC3)[C@@H]2CC1 ; hepatocyte CLint = 22
